- System: MT4
- assay.protocol: The compound was evaluated for inhibition of cytopathic effect of HIV-2ROD in MT-4 cells
- Assay type: functional, cell-based, Homo sapiens
- experimental.conditions: mt4
measurement.kind: EC50

CC(C)CCCC(C)[C@H]1CC[C@H]2[C@@H]3CCC4C[C@@H](CCC=C(c5cc(Cl)c(OCc6ccc([N+](=O)[O-])cc6)c(C(=O)O)c5)c5cc(Cl)c(OCc6ccc([N+](=O)[O-])cc6)c(C(=O)O)c5)CC[C@]4(C)[C@H]3CC[C@]12C (some centres not stated)    > 83 µM

Below: the item to evaluate.
Memo: CC(C)CCCC(C)[C@H]1CC[C@H]2[C@@H]3CCC4C[C@@H](CCC=C(c5cc(Cl)c(OCc6ccccc6C(=O)[O-])c(C(=O)[O-])c5)c5cc(Cl)c(OCc6ccccc6C(=O)[O-])c(C(=O)[O-])c5)CC[C@]4(C)[C@H]3CC[C@]12C.[Na+].[Na+].[Na+].[Na+] (some centres not stated) , reported EC50: > 52 µM

Where do these numbers come from? They come from ChEMBL document CHEMBL1132142.
